Exercise: state measured ORAC assay for each of the compounds provided.
assay: oxygen radical absorbance capacity (ORAC) assay; format: biochemical; conditions: isolated and reference compounds
Give bare numbers, in μmol TE/μmol.

Required: ORAC assay, one value per compound below.
1. O=C1C[C@@H](c2ccc(O)c(O)c2)Oc2c1c(O)cc(O)c2[C@@H]1C(=O)c2c(O)cc(O)cc2O[C@H]1c1ccc(O)c(O)c1 [Compound 5]
2. O=C1c2c(cc(O)c([C@@H]3O[C@H](CO)[C@@H](O)[C@H](O)[C@H]3O)c2O)O[C@H](c2ccc(O)c(O)c2)[C@H]1O [Compound 1]
3. O=C1O[C@H]([C@@H](O)CO)C(O)=C1O [ascorbic acid]

Result:
[10.50, 9.57, 0.34]
